- measurement target: Mitogen-activated protein kinase 14 (Homo sapiens, UniProt Q16539)
- Sequence (Q16539 whole entry): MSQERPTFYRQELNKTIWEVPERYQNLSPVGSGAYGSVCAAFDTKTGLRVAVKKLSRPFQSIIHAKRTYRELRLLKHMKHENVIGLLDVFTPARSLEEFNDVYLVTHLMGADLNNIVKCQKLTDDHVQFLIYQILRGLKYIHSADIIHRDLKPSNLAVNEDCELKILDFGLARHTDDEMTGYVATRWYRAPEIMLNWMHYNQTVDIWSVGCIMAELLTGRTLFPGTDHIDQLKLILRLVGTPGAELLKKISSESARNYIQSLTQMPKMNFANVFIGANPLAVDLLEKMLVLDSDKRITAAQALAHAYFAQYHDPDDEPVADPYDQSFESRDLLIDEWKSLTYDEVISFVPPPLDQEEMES
- assay details: In vitro inhibitory activity determined against human mitogen-activated protein kinase p38 alpha
pIC50: −log10 of the molar value.
property: pIC50

Some compounds with recorded pIC50:
Problem: Which pIC50 value belongs to `COc1ccccc1C(=O)c1ccc(Nc2ccccc2N)cc1Cl` ?
Result: 8.30

Problem: Returns the measured pIC50 for the input compound. Input: `Cc1ccccc1C(=O)c1ccc(Nc2ccc(Br)cc2N)cc1Cl`
Result: 7.41

Problem: Need pIC50 of `Cc1ccccc1Nc1ccc(C(=O)c2ccccc2C)c(Cl)c1` , thanks.
Result: 7.92

Problem: Please report the recorded pIC50 for `Cc1ccccc1C(=O)c1ccc(Nc2ccccc2)cc1Cl` .
Result: 8.15

Problem: Can you share its pIC50? I mean this compound: `Nc1ccccc1Nc1ccc(C(=O)c2ccccc2)c(Cl)c1`
Result: 6.86

Problem: Form field: reported pIC50 of `Cc1cc(F)ccc1Nc1ccc(C(=O)c2ccccc2C)c(Cl)c1`
Result: 8.40

Problem: Data request, read-out pIC50, for `Cc1ccccc1C(=O)c1ccc(Nc2ccccc2N)cc1`
Result: 7.54

Problem: // query pIC50 value for entry `CCOC(=O)Nc1ccccc1Nc1ccc(C(=O)c2ccccc2C)c(Cl)c1`
Result: 7.38

P. C=C(c1ccccc1C)c1ccc(Nc2ccccc2N)cc1Cl
Q. Cc1ccccc1C(=O)c1ccc(Nc2ccccc2[N+](=O)[O-])cc1Cl
R. Cc1ccccc1C(=O)c1ccc(Nc2ccccc2N)cc1C
S. CCNC(=O)Nc1ccccc1Nc1ccc(C(=O)c2ccccc2C)c(Cl)c1
T. O=C(c1ccccc1)c1ccc(Nc2ccccc2)cc1
Problem: rank_up(items): orders items by reported pIC50 in ascending numerical order. // rank by listing labels in the order requested
Result: P, Q, T, S, R

Reference source for all entries: ChEMBL document CHEMBL1145938
